Tested on: HeLa cells
Test: Cell viability / cytotoxicity evaluated by MTT assay
Assay type: cell-based
Settings: Homo sapiens, incubation for 24 hours, concentrations 0 to 40 μM, FIG. 4E, read-out: half maximal inhibitory concentration (IC50) of cell viability
MEASURED_QUANTITY: IC50

Query :: I am curious: what IC50 value has been reported for CC[n+]1ccc(-c2ccc(/C(C#N)=C/c3ccc(C#Cc4ccccc4)cc3)cc2)cc1 ?
Result :: ~7 µM
